B1: FAM46D (parent)
chain: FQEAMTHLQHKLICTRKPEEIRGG

Variants of: B1
ASSAY_PROCEDURE: protein stability index of a GFP-peptide fusion (GPS, HEK-293T) (PSI 1-6); higher = more stable;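 also: lentivirally expressed fusions sorted by FACS into six bins by GFP to DsRed ratio, PSI derived from sequencing read proportions per bin multiplied by bin number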
STATED_CONDITIONS: c terminus: a fixed tail appended
# protein stability index per record follows
Field format: numeric only.

Below, 5 variants whose answers are already recorded.
> print(dat)
                             chain  test.result
1  FQEAMTHLQHKLITTRKPEEIRGG [C14T]          2.7
2   FLEAMTHLQHKLICTRKPEEIRGG [Q2L]         2.32
3   FQEWMTHLQHKLICTRKPEEIRGG [A4W]         1.58
4  FQEAMTHLQHKLICTRKPEEWRGG [I21W]         2.07
5  FQEAMTHLQHYLICTRKPEEIRGG [K11Y]         1.66

Quick one: protein stability index for FQEAMTHLQHKLICTRKPEEIPGG [R22P] ?
2.51

Quick one: protein stability index for FQEAMTHLQHKLIWTRKPEEIRGG [C14W] ?
1.68

Quick one: protein stability index for FQEAMTHLQHKLICTRKPEEIRLG [G23L] ?
2.66

Quick one: protein stability index for FQEAMTHTQHKLICTRKPEEIRGG [L8T] ?
3.35

Quick one: protein stability index for FQEAMDHLQHKLICTRKPEEIRGG [T6D] ?
3.41

Quick one: protein stability index for FQEAMTHLQVKLICTRKPEEIRGG [H10V] ?
1.92

Quick one: protein stability index for FQEAPTHLQHKLICTRKPEEIRGG [M5P] ?
3.37

Quick one: protein stability index for FQEAMTHLQYKLICTRKPEEIRGG [H10Y] ?
2.11

Quick one: protein stability index for FQEAMFHLQHKLICTRKPEEIRGG [T6F] ?
2.11

Quick one: protein stability index for FQEAMTHLQHKLICTRKPELIRGG [E20L] ?
2.05

Quick one: protein stability index for FQEAMTHLQHILICTRKPEEIRGG [K11I] ?
2.03

Quick one: protein stability index for FQEAMAHLQHKLICTRKPEEIRGG [T6A] ?
2

Measured values drawn from the supplement of paper PMC10567573 for this set.
